experimental-protocol: Cytotoxicity against human IGROV-ET cells after 48 hrs by SRB assay
Format: functional
condition-context: read-out: LC50 (the source's name)
Provide the recorded CC50 for the entries that follow.
Give the value, in units of nM, as a plain number.

Looking up `CC[C@@H](C)[C@@H](NC(=O)[C@H](CCCN)NC(=O)[C@H]1CCCN1C(=O)[C@H](NC(=O)[C@@H](NC(=O)[C@@H](NC(=O)[C@H](NC(=O)CCCC(C)C)C(C)C)[C@@H](C)O)C(C)C)C(C)C)C(=O)N[C@H]1C(=O)N[C@H]([C@H](C)CC)C(=O)N[C@H](C(C)C)C(=O)N[C@@H](Cc2ccccc2)C(=O)N[C@H](CC)C(=O)N[C@@H](C(C)C)C(=O)O[C@H]1C` , I see its CC50 listed as 748

Looking up `C/C=C1\NC(=O)[C@H](Cc2ccccc2)NC(=O)[C@@H](C(C)C)NC(=O)[C@@H]([C@H](C)CC)NC(=O)[C@H](NC(=O)[C@H](NC(=O)[C@H](CCCC[N+](C)(C)C)NC(=O)[C@H]2CCCN2C(=O)[C@H](NC(=O)[C@@H](NC(=O)[C@@H](NC(=O)[C@H](NC(=O)CC[C@@H](C)CC)C(C)C)[C@@H](C)O)C(C)C)C(C)C)[C@H](C)CC)[C@H](C)OC(=O)[C@H](C(C)C)NC1=O` , I see its CC50 listed as 446

Looking up `C/C=C1\NC(=O)[C@H](Cc2ccccc2)NC(=O)[C@@H](C(C)C)NC(=O)[C@@H]([C@H](C)CC)NC(=O)[C@H](NC(=O)[C@H](NC(=O)[C@H](CCCN)NC(=O)[C@@H]2CC[C@H](c3ccccc3)N2C(=O)[C@H](NC(=O)[C@@H](NC(=O)[C@@H](NC(=O)[C@H](NC(=O)CC[C@@H](C)CC)C(C)C)[C@@H](C)O)C(C)C)C(C)C)[C@H](C)CC)[C@H](C)OC(=O)[C@H](C(C)C)NC1=O` , I see its CC50 listed as 5220

Looking up `C/C=C1\NC(=O)[C@H](Cc2ccccc2)NC(=O)[C@@H](C(C)C)NC(=O)[C@@H]([C@H](C)CC)NC(=O)[C@H](NC(=O)[C@H](NC(=O)[C@H](CCCN)NC(=O)[C@H]2CCCN2C(=O)[C@H](NC(=O)[C@@H](NC(=O)[C@@H](NC(=O)[C@H](N)C(C)C)[C@@H](C)O)C(C)C)C(C)C)[C@H](C)CC)[C@H](C)OC(=O)[C@H](C(C)C)NC1=O` , I see its CC50 listed as 1260

###

Test system: K562
experimental-protocol: Cytotoxicity against human K562 cells after 48 hrs by SRB assay
Format: functional
condition-context: K562, 48 h
endpoint-label: GI50 (nM)
Give the value, in units of nM, as a plain number.

Entry `C/C=C1\NC(=O)[C@H](Cc2ccc(F)c(F)c2)NC(=O)[C@@H](C(C)C)NC(=O)[C@@H]([C@H](C)CC)NC(=O)[C@H](NC(=O)[C@H](NC(=O)[C@H](CCCN)NC(=O)[C@H]2CCCN2C(=O)[C@H](NC(=O)[C@@H](NC(=O)[C@@H](NC(=O)[C@H](NC(=O)CCCC(C)C)C(C)C)[C@@H](C)O)C(C)C)C(C)C)[C@H](C)CC)[C@H](C)OC(=O)[C@H](C(C)C)NC1=O` : GI50 on K562 = 732

Entry `C/C=C1\NC(=O)[C@H](Cc2ccccc2)NC(=O)[C@@H](C(C)C)NC(=O)[C@@H]([C@H](C)CC)NC(=O)[C@H](NC(=O)[C@H](NC(=O)[C@H](CCCNC(=O)/C=C/CCC)NC(=O)[C@H]2CCCN2C(=O)[C@H](NC(=O)[C@@H](NC(=O)[C@@H](NC(=O)[C@H](NC(=O)CCCC(C)C)C(C)C)[C@@H](C)O)C(C)C)C(C)C)[C@H](C)CC)[C@H](C)OC(=O)[C@H](C(C)C)NC1=O` : GI50 on K562 = 1240

Entry `C/C=C1\NC(=O)[C@H](Cc2ccccc2)NC(=O)[C@@H](C(C)C)NC(=O)[C@@H]([C@H](C)CC)NC(=O)[C@H](NC(=O)[C@H](NC(=O)[C@H](CCCN)NC(=O)[C@H]2CCCN2C(=O)[C@H](NC(=O)[C@H](CCC2CCCCC2)NC(=O)[C@@H](NC(=O)[C@@H](CC2CCCCC2)NC(=O)CCCC(C)C)[C@@H](C)O)C(C)C)[C@H](C)CC)[C@H](C)OC(=O)[C@H](C(C)C)NC1=O` : GI50 on K562 = 1790

Entry `C/C=C1\NC(=O)[C@H](Cc2ccccc2)NC(=O)[C@@H](C(C)C)NC(=O)[C@@H]([C@H](C)CC)NC(=O)[C@H](NC(=O)[C@H](NC(=O)[C@H](CCCCN)NC(=O)[C@H]2CCCN2C(=O)[C@H](NC(=O)[C@@H](NC(=O)[C@@H](NC(=O)[C@H](NC(=O)CCCC(C)C)C(C)C)[C@@H](C)O)C(C)C)C(C)C)[C@H](C)CC)[C@H](C)OC(=O)[C@H](C(C)C)NC1=O` : GI50 on K562 = 9350

###

Test system: A549
experimental-protocol: Cytotoxicity against human A549 cells after 48 hrs by SRB assay
Assay type: functional, cell-based
condition-context: Homo sapiens, A549, 48 h; read-out: GI50
Mark Criterion met only when GI50 stays strictly below 1000 nM. Values equal to the cut-off are Criterion not met.

Does the reported GI50 of the following molecule sit strictly below 1000 nM? `C/C=C1\NC(=O)[C@H](Cc2ccccc2)NC(=O)[C@@H](C(C)C)NC(=O)[C@@H](C(C)C)NC(=O)[C@H](NC(=O)[C@H](NC(=O)[C@H](CCCN)NC(=O)[C@H]2CCCN2C(=O)[C@H](NC(=O)[C@@H](NC(=O)[C@@H](NC(=O)[C@H](NC(=O)CCCC(C)C)C(C)C)[C@@H](C)O)C(C)C)C(C)C)C(C)C)[C@H](C)OC(=O)[C@H](C(C)C)NC1=O`
Criterion not met

Does the reported GI50 of the following molecule sit strictly below 1000 nM? `C/C=C1\NC(=O)[C@H](Cc2ccccc2)NC(=O)[C@@H](C(C)C)NC(=O)[C@@H]([C@H](C)CC)NC(=O)[C@H](NC(=O)[C@H](NC(=O)[C@H](CCCN)NC(=O)[C@H]2CCCN2C(=O)[C@H](NC(=O)[C@@H](NC(=O)[C@@H](NC(=O)[C@H](NC(=O)CC[C@@H](C)CC)C(C)C)[C@@H](C)OC(=O)C(F)(F)F)C(C)C)C(C)C)[C@H](C)CC)[C@H](C)OC(=O)[C@H](C(C)C)NC1=O`
Criterion not met

Does the reported GI50 of the following molecule sit strictly below 1000 nM? `C/C=C1\NC(=O)[C@H](Cc2ccccc2)NC(=O)[C@@H](C(C)C)NC(=O)[C@@H]([C@H](C)CC)NC(=O)[C@H](NC(=O)[C@H](NC(=O)[C@H](CCCN)NC(=O)[C@H]2CCCN2C(=O)[C@H](NC(=O)[C@@H](NC(=O)[C@@H](NC(=O)[C@@H](CC2CCCCC2)NC(=O)CCCC(C)C)[C@@H](C)O)C(C)C)C(C)C)[C@H](C)CC)[C@H](C)OC(=O)[C@H](C(C)C)NC1=O`
Criterion not met

Does the reported GI50 of the following molecule sit strictly below 1000 nM? `C/C=C1\NC(=O)[C@H](Cc2ccccc2)NC(=O)[C@@H](C(C)C)NC(=O)[C@@H]([C@H](C)CC)NC(=O)[C@H](NC(=O)[C@H](NC(=O)[C@H](CCCN)NC(=O)[C@H]2CCCN2C(=O)[C@H](NC(=O)[C@@H](NC(=O)[C@H](C)NC(=O)[C@H](NC(=O)CCCC(C)C)C(C)C)C(C)C)C(C)C)[C@H](C)CC)[C@H](C)OC(=O)[C@H](C(C)C)NC1=O`
Criterion met

Does the reported GI50 of the following molecule sit strictly below 1000 nM? `C/C=C1\NC(=O)[C@@H]2C[C@@H]3CCCC[C@@H]3N2C(=O)[C@@H](C(C)C)NC(=O)[C@@H]([C@H](C)CC)NC(=O)[C@H](NC(=O)[C@H](NC(=O)[C@H](CCCN)NC(=O)[C@H]2CCCN2C(=O)[C@H](NC(=O)[C@@H](NC(=O)[C@@H](NC(=O)[C@H](NC(=O)CC[C@@H](C)CC)C(C)C)[C@@H](C)O)C(C)C)C(C)C)[C@H](C)CC)[C@H](C)OC(=O)[C@H](C(C)C)NC1=O`
Criterion not met

Does the reported GI50 of the following molecule sit strictly below 1000 nM? `C/C=C1\NC(=O)[C@H](Cc2ccccc2)NC(=O)[C@@H](C(C)C)NC(=O)[C@@H]([C@H](C)CC)NC(=O)[C@H](NC(=O)[C@H](NC(=O)[C@H](CCCNC(=O)CCC2CCCCC2)NC(=O)[C@H]2CCCN2C(=O)[C@H](NC(=O)[C@@H](NC(=O)[C@@H](NC(=O)[C@H](NC(=O)CCCC(C)C)C(C)C)[C@@H](C)O)C(C)C)C(C)C)[C@H](C)CC)[C@H](C)OC(=O)[C@H](C(C)C)NC1=O`
Criterion met
